Let's look at some variants and their measured abundance fitness.
B1: Transitional endoplasmic reticulum ATPase, residues 26 to 106; numbered along this chain, P55072 (parent)
chain: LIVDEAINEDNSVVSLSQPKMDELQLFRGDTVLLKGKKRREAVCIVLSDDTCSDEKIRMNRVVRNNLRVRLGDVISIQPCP

Variants of: B1
Experiment: abundance fitness (aPCA) (normalised: wild type 0, dead -1); higher = more abundant; growth selection in yeast, the domain comes from the species named
Details: Homo sapiens
Answer with the value's number alone.

Observe how each entry below is paired with its result.
1. D4L	-0.203
2. D73Q	0.004
3. D50R	-0.057
4. S12N	-0.086
5. V3W	-0.952

Tell me the measured abundance fitness of I57T , please.
-0.622

What does the record list as abundance fitness for S76L ?
-0.112

Bench note: what abundance fitness did G72D show?
-0.187

Find the recorded abundance fitness belonging to L26E and report it.
-1.02

Reported abundance fitness for L47Q : what is it?
-0.015

I'd like to know its abundance fitness. The variant in question is N11A
-0.105
